# test_summary: Adsorption force of the first compound
# Format: physicochemical
# Parameters: unit not given here
# condition_label: adsorption to pixel electrode; unit not given; larger absolute value = stronger adsorption
We begin with a simple list: items and their reported Adsorption force.

Example entries and their recorded answers appear below.
C=CC(=O)OCCOc1c(F)cc(-c2ccc(OCCOC(=O)CCOCc3cccnn3)cc2)cc1F	−0.51
C=C(CCN(CCO)CCO)Oc1ccc(C(=O)c2ccc(OC(=O)C(=C)C)cc2)cc1	−1.27
C=CC(=O)OCCOc1c(F)cc(-c2ccc(OCCOC(=O)CCOCc3ccoc3)cc2)cc1F	−0.45

Shifting focus to the compound that follows.
query: What does the record list as Adsorption force for C=CC(=O)OCCOc1c(F)cc(-c2ccc(OCCOC(=O)CCOCc3ccon3)cc2)cc1F ?
result: −0.53

###

We begin with a simple list: items and their reported Adsorption force.
# test_summary: Adsorption force of the first compound
# Format: physicochemical
# Set-up: unit not given here
# condition_label: adsorption to pixel electrode; unit not given; larger absolute value = stronger adsorption
Hey, just send me the number, nothing else.

C=C(C)C(=O)OCCCCCOc1c(F)cc(-c2ccc(OCCCCCCOC(=O)CCN(CCC)CCO)cc2)cc1F	−0.99
C=C(C)C(=O)OCCCc1cc(-c2ccccc2CC)cc(CCCOC(=O)C(=C)C)c1OCCCCCc1ccc(OCCCCCO)cc1 [Comparative Example, reference compound]	−0.49
C=C(C)C(=O)OCCCCCOc1ccc(C(=O)c2ccc(OCCCCCCOC(=O)CCN(CCO)CCO)cc2)cc1	−1.34

query: What does the record list as Adsorption force for C=CC(=O)OCCOc1c(F)cc(-c2ccc(OCCOC(=O)CCOC3CCOCC3)cc2)cc1F ?
result: −0.40
